Biological target: hMC4-R (Homo sapiens (Human))
Sequence (P32245 whole entry): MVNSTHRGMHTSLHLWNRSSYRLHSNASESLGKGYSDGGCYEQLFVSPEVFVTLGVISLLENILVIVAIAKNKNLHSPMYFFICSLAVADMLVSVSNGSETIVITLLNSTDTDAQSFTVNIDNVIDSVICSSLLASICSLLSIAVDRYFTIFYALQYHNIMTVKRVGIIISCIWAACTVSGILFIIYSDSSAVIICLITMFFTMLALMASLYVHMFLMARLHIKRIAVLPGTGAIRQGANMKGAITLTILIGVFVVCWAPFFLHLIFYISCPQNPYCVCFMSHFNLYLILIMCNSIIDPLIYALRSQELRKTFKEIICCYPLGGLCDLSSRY
Test: High and low density hMC4-R functional assay (cAMP, HEK293-T-REx-MC4-R cells)
Assay type: cell-based
Details: 0.1 ng/mL Doxycycline (low density hMC4-R system); NDP-α-MSH = 100%; read-out: Intrinsic Activity (%)
Method: The cells were then dispensed into 96-well plates (BD 353916) in 198 μL (about 5×10^4) cells/well and incubated for 10 minutes at 37° C. The compound to be tested was diluted with DMSO to a final concentration of 1 mM. […] 120 μL of the 1 mM compound stock was pipetted in the second column on the plate. […] All assay samples were run in duplicate (i.e. each sample was in two low dox and two high dox plates, respectively). The plates were gently shaken and incubated for 15 minutes at 37° C.
Positions of bridges follow the written chain, without caps; N, C: chain ends. Non-standard residues stand in square brackets, D forms with d. Residues, ends and D or L forms follow the SMILES beside them. dPhe(4-CN) = N#Cc1ccc(C[C@@H](N)C(=O)O)cc1; Orn = NCCC[C@H](N)C(=O)O
Label y when Emax < 30%; otherwise n.

INPUT: Please indicate whether the reported Emax of CC(=O)N[C@@H](CCCNC(=N)N)C(=O)N[C@H]1CCC(=O)NCCC[C@@H](C(=O)O)NC(=O)[C@H](Cc2c[nH]c3ccccc23)NC(=O)[C@H](CCCNC(=N)N)NC(=O)[C@@H](Cc2cccc(Cl)c2)NC(=O)[C@H](CCCN)NC1=O is strictly below 30%.
OUTPUT: y

INPUT: Please indicate whether the reported Emax of CC(=O)N[C@@H](CCCNC(=N)N)C(=O)N[C@H]1CCC(=O)NCCC[C@@H](C(N)=O)NC(=O)[C@H](Cc2c[nH]c3ccccc23)NC(=O)[C@H](CCCNC(=N)N)NC(=O)[C@@H](Cc2cccc(Cl)c2)NC(=O)[C@H](CCN)NC1=O is strictly below 30%.
OUTPUT: n

INPUT: Please indicate whether the reported Emax of CC(=O)N[C@H](CCCNC(=N)N)C(=O)N[C@H]1CC(=O)NCCCC[C@@H](C(N)=O)NC(=O)[C@H](Cc2c[nH]c3ccccc23)NC(=O)[C@H](CCCNC(=N)N)NC(=O)[C@@H](Cc2ccc(C#N)cc2)NC(=O)[C@H](CCC(N)=O)NC1=O is strictly below 30%.
OUTPUT: y

INPUT: Please indicate whether the reported Emax of CC(=O)N[C@@H](CCCNC(=N)N)C(=O)N[C@H]1CCCNC(=O)CC[C@@H](C(N)=O)NC(=O)[C@H](Cc2c[nH]c3ccccc23)NC(=O)[C@H](CCCNC(=N)N)NC(=O)[C@@H](Cc2cccc(C)c2)NC(=O)[C@H](CC(N)=O)NC1=O is strictly below 30%.
OUTPUT: y

INPUT: Please indicate whether the reported Emax of CC(=O)N[C@@H](CCCNC(=N)N)C(=O)N[C@H]1CC(=O)NCCCC[C@@H](C(N)=O)NC(=O)[C@H](Cc2c[nH]c3ccccc23)NC(=O)[C@H](CCCNC(=N)N)NC(=O)[C@@H](Cc2ccc(C#N)cc2)NC(=O)[C@H](CC(N)=O)NC1=O [Example 89] (Ac-RDN[dPhe(4-CN)]RWK-NH2; lactam 2-7) is strictly below 30%.
OUTPUT: y

INPUT: Please indicate whether the reported Emax of CC(=O)N[C@@H](CCCNC(=N)N)C(=O)N[C@H]1CCC(=O)NCCC[C@@H](C(N)=O)NC(=O)[C@H](Cc2c[nH]c3ccccc23)NC(=O)[C@H](CCCNC(=N)N)NC(=O)[C@@H](Cc2cccc(Cl)c2)NC(=O)[C@H]([C@@H](C)O)NC1=O is strictly below 30%.
OUTPUT: y

INPUT: Please indicate whether the reported Emax of CC(=O)N[C@H](CCCNC(=N)N)C(=O)N[C@H]1CC(=O)NCCCC[C@@H](C(N)=O)NC(=O)[C@H](Cc2c[nH]c3ccccc23)NC(=O)[C@H](CCCNC(=N)N)NC(=O)[C@@H](Cc2ccc(F)cc2)NC(=O)[C@H](CCC(N)=O)NC1=O is strictly below 30%.
OUTPUT: n

INPUT: Please indicate whether the reported Emax of CC(=O)N[C@@H](CCCNC(=N)N)C(=O)N[C@H]1CCC(=O)NCCC[C@@H](C(=O)O)NC(=O)[C@H](Cc2c[nH]c3ccccc23)NC(=O)[C@H](CCCNC(=N)N)NC(=O)[C@@H](Cc2ccc(C#N)cc2)NC(=O)[C@H](CCC(=O)O)NC1=O [Example 109] (Ac-REE[dPhe(4-CN)]RW[Orn]-OH; lactam 2-7) is strictly below 30%.
OUTPUT: y

INPUT: Please indicate whether the reported Emax of CC(=O)N[C@@H](CCCNC(=N)N)C(=O)N[C@H]1CCC(=O)NCCC[C@@H](C(N)=O)NC(=O)[C@H](Cc2c[nH]c3ccccc23)NC(=O)[C@H](CCCNC(=N)N)NC(=O)[C@@H](Cc2ccc(Cl)cc2)NC(=O)[C@H](CCN)NC1=O is strictly below 30%.
OUTPUT: y

INPUT: Please indicate whether the reported Emax of CC(=O)N[C@H](CCCNC(=N)N)C(=O)N[C@H]1CC(=O)NCCCC[C@@H](C(N)=O)NC(=O)[C@H](Cc2c[nH]c3ccccc23)NC(=O)[C@H](CCCNC(=N)N)NC(=O)[C@@H](Cc2ccc(F)c(F)c2)NC(=O)[C@H](CCC(N)=O)NC1=O is strictly below 30%.
OUTPUT: n

INPUT: Please indicate whether the reported Emax of CC(=O)N[C@H](CCCNC(=N)N)C(=O)N[C@H]1CCCNC(=O)CC[C@@H](C(N)=O)NC(=O)[C@H](Cc2c[nH]c3ccccc23)NC(=O)[C@H](CCCNC(=N)N)NC(=O)[C@@H](Cc2ccc(F)c(F)c2)NC(=O)[C@H](Cc2c[nH]cn2)NC1=O is strictly below 30%.
OUTPUT: n

INPUT: Please indicate whether the reported Emax of CC(=O)N[C@@H](CCCNC(=N)N)C(=O)N[C@H]1CCC(=O)NCCC[C@@H](C(N)=O)NC(=O)[C@H](Cc2c[nH]c3ccccc23)NC(=O)[C@H](CCCNC(=N)N)NC(=O)[C@@H](Cc2cc(F)cc(F)c2)NC(=O)[C@H](CC(N)=O)NC1=O is strictly below 30%.
OUTPUT: n

INPUT: Please indicate whether the reported Emax of CC(=O)N[C@@H](CCCNC(=N)N)C(=O)N[C@H]1CCCNC(=O)CC[C@@H](C(N)=O)NC(=O)[C@H](Cc2c[nH]c3ccccc23)NC(=O)[C@H](CCCNC(=N)N)NC(=O)[C@@H](Cc2ccc(C#N)cc2)NC(=O)[C@H](CCC(N)=O)NC1=O is strictly below 30%.
OUTPUT: n

INPUT: Please indicate whether the reported Emax of CC(=O)N[C@@H](CCCNC(=N)N)C(=O)N[C@H]1CCC(=O)NCCC[C@@H](C(N)=O)NC(=O)[C@H](Cc2c[nH]c3ccccc23)NC(=O)[C@H](CCCNC(=N)N)NC(=O)[C@@H](Cc2ccccc2C(F)(F)F)NC(=O)[C@H](CCN)NC1=O is strictly below 30%.
OUTPUT: n

INPUT: Please indicate whether the reported Emax of CC(=O)N[C@@H](CCCNC(=N)N)C(=O)N[C@H]1CCCNC(=O)CC[C@@H](C(N)=O)NC(=O)[C@H](Cc2c[nH]c3ccccc23)NC(=O)[C@H](CCCNC(=N)N)NC(=O)[C@@H](Cc2ccccc2C(F)(F)F)NC(=O)[C@H](CC(N)=O)NC1=O is strictly below 30%.
OUTPUT: n
